molecular target: furin, P09958; assay: furin cleavage Z-score vs untreated control; higher = more cleavage, active = 3.5 or more, inactive = 1 or less, 8 variable residues between constant flanks; conditions: 7.5 min;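 note: purified furin at 1:10 enzyme:substrate in 50 mM HEPES pH 7.5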
Sequence (P09958 whole entry): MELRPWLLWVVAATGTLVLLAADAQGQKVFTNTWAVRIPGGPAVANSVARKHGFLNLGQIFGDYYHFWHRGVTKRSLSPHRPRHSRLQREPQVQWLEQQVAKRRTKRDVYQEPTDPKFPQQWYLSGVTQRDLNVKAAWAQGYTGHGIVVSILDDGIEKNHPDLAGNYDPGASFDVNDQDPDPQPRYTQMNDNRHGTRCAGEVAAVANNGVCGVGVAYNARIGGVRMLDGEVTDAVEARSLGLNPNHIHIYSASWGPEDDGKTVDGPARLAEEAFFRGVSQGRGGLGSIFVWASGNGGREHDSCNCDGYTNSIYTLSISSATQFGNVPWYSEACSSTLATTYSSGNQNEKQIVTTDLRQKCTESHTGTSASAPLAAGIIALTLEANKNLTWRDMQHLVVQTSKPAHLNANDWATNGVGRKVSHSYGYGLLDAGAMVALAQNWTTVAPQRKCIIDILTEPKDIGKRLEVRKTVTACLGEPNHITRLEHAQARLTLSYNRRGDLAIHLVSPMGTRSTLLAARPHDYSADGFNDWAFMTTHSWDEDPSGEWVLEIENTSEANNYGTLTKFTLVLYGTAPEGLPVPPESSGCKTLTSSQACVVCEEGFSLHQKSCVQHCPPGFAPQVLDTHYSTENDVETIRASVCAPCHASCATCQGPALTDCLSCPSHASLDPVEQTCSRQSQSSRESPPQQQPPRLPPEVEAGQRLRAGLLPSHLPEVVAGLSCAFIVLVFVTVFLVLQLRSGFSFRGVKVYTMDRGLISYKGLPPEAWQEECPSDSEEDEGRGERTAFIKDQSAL
The list shows a part of the results. No count for the full screen is at hand.
Experimental Endpoint: furin cleavage Z-score
Answers are plain numbers.

Need furin cleavage Z-score, item CARFRREVEKAGNASASA [FS-2490]
9.16

Bench note: what furin cleavage Z-score did CAPLKRSMSLAGNASASA [FS-2875] show?
2.28

For the sequence shown here, CARQKKADEPAGNASASA [FS-3033] , give the reported furin cleavage Z-score.
-0.414

Switching to the query record.
What does the data say about its furin cleavage Z-score? Entry: CAWISSECTTAGNASASA [HC1142]
-0.663

Measured values drawn from the supplement of paper PMC3545927 for this set.
